- Tested on: EW-16 (Ewing's Sarcoma);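 also: after 72 h of two-drug dosing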
- Method Notes: Bliss excess, mean over the matrix (fraction); higher = more synergy
Attribute Measured: Bliss excess

# Molecule, Obs Value
records = [
    ("C[C@@H](c1ccc2nccn2c1)n1nnc2ncc(-c3cnn(C)c3)nc21 [Savolitinib] + Cc1c2c(nn1C)CSCc1cc(n(C)n1)CSc1cc(c3ccccc3c1)OCCCc1c(C(=O)O)n(C)c3c-2c(Cl)ccc13 [AZD5991] (first compound max 1 µM, 7x7, partner max 1 µM)", -0.032),
    ("Cc1c2c(nn1C)CSCc1cc(n(C)n1)CSc1cc(c3ccccc3c1)OCCCc1c(C(=O)O)n(C)c3c-2c(Cl)ccc13 [AZD5991] + C[C@@H](Nc1cc(F)cc(F)c1)c1cc(C(=O)N(C)C)cc2c(=O)cc(N3CCOCC3)oc12 [AZD8186] (first compound max 1 µM, 7x7, partner max 3 µM)", -0.0571),
    ("CCN(CCO)CCCOc1ccc2c(Nc3cc(CC(=O)Nc4cccc(F)c4)[nH]n3)ncnc2c1 [AZD2811] + C[C@@H]1COCCN1C2=NC(=NC(=C2)C3(CC3)[S@](=N)(=O)C)C4=C5C=CNC5=NC=C4 [AZD6738] (first compound max 1 µM, 7x7, partner max 10 µM)", -0.018),
]

---

List of combination Emax values.
- System: NCI-H2228 (Lung Adenocarcinoma)
- Method Notes: combination Emax (second highest fraction inhibited in the dose matrix, 72 h); higher = more inhibition; extreme values may be limits of the assay
Attribute Measured: combination Emax

# Molecule, Obs Value
measured = [
    ("COc1nnc2ccc(N3CCC(c4ccc(OCCN5CCN(C)C(=O)[C@H]5C)cc4)CC3)nn12 [AZD5153] + Cc1c2c(nn1C)CSCc1cc(n(C)n1)CSc1cc(c3ccccc3c1)OCCCc1c(C(=O)O)n(C)c3c-2c(Cl)ccc13 [AZD5991] (first compound max 1 µM, 7x7, partner max 1 µM)", 0.372),
    ("Cc1c2c(nn1C)CSCc1cc(n(C)n1)CSc1cc(c3ccccc3c1)OCCCc1c(C(=O)O)n(C)c3c-2c(Cl)ccc13 [AZD5991] + CCN(CCO)CCCOc1ccc2c(Nc3cc(CC(=O)Nc4cccc(F)c4)[nH]n3)ncnc2c1 [AZD2811] (first compound max 1 µM, 7x7, partner max 1 µM)", 0.296),
    ("C[C@@H](c1ccc2nccn2c1)n1nnc2ncc(-c3cnn(C)c3)nc21 [Savolitinib] + Cc1c2c(nn1C)CSCc1cc(n(C)n1)CSc1cc(c3ccccc3c1)OCCCc1c(C(=O)O)n(C)c3c-2c(Cl)ccc13 [AZD5991] (first compound max 1 µM, 7x7, partner max 1 µM)", 0.195),
    ("COc1nnc2ccc(N3CCC(c4ccc(OCCN5CCN(C)C(=O)[C@H]5C)cc4)CC3)nn12 [AZD5153] + CCN(CCO)CCCOc1ccc2c(Nc3cc(CC(=O)Nc4cccc(F)c4)[nH]n3)ncnc2c1 [AZD2811] (first compound max 1 µM, 7x7, partner max 1 µM)", 0.348),
    ("Cc1c2c(nn1C)CSCc1cc(n(C)n1)CSc1cc(c3ccccc3c1)OCCCc1c(C(=O)O)n(C)c3c-2c(Cl)ccc13 [AZD5991] + C1CN(CCC1(C(=O)N[C@@H](CCO)C2=CC=C(C=C2)Cl)N)C3=NC=NC4=C3C=CN4 [Capivasertib] (first compound max 1 µM, 7x7, partner max 3 µM)", 0.426),
    ("CC(=O)Nc1cccc(-n2c(=O)n(C3CC3)c(=O)c3c(Nc4ccc(I)cc4F)n(C)c(=O)c(C)c32)c1 [Trametinib] + Cc1nc(-c2cn3c(n2)-c2ccc(-c4cnn(C(C)(C)C(N)=O)c4)cc2OCC3)n(C(C)C)n1 [Taselisib] (first compound max 1 µM, 7x7, partner max 10 µM)", 0.914),
    ("CCc1c2c(nc3ccc(O)cc13)-c1cc3c(c(=O)n1C2)COC(=O)[C@]3(O)CC [SN-38] + CN(C)CCCOc1ccc(-c2ccc3ncc4c(c3c2)n(C2CCOCC2)c(=O)n4C)cn1 [AZD0156] (first compound max 0.3 µM, 7x7, partner max 1 µM)", 0.716),
    ("CCN(CCO)CCCOc1ccc2c(Nc3cc(CC(=O)Nc4cccc(F)c4)[nH]n3)ncnc2c1 [AZD2811] + O=C(c1cc(Cc2n[nH]c(=O)c3ccccc23)ccc1F)N1CCN(C(=O)C2CC2)CC1 [Olaparib] (first compound max 1 µM, 7x7, partner max 10 µM)", 0.268),
    ("CC1(C)CCC(CN2CCN(c3ccc(C(=O)NS(=O)(=O)c4ccc(NCC5CCOCC5)c([N+](=O)[O-])c4)c(Oc4cnc5[nH]ccc5c4)c3)CC2)=C(c2ccc(Cl)cc2)C1 [Venetoclax] + COc1cc(Nc2ncc3c(n2)-c2ccc(Cl)cc2C(c2c(F)cccc2OC)=NC3)ccc1C(=O)O [Alisertib] (first compound max 1 µM, 7x7, partner max 10 µM)", 0.396),
    ("C[C@@H](c1ccc2nccn2c1)n1nnc2ncc(-c3cnn(C)c3)nc21 [Savolitinib] + CN(CC[C@H](CSC1=CC=CC=C1)NC2=C(C=C(C=C2)S(=O)(=O)NC(=O)C3=CC=C(C=C3)N4CCC(CC4)[C@H](C5=CC=CC=C5C6=CC=C(C=C6)Cl)O)S(=O)(=O)C(F)(F)F)CCO [AZD4320] (first compound max 1 µM, 7x7, partner max 1 µM)", 0.134),
    ("COc1nnc2ccc(N3CCC(c4ccc(OCCN5CCN(C)C(=O)[C@H]5C)cc4)CC3)nn12 [AZD5153] + C=CCn1c(=O)c2cnc(Nc3ccc(N4CCN(C)CC4)cc3)nc2n1-c1cccc(C(C)(C)O)n1 [AZD1775] (first compound max 1 µM, partner max 1 µM)", 0.465),
    ("CS(=O)(=O)CCNCc1ccc(-c2ccc3ncnc(Nc4ccc(OCc5cccc(F)c5)c(Cl)c4)c3c2)o1 [Lapatinib] + C[C@@H](Oc1cc(-c2cnn(C3CCNCC3)c2)cnc1N)c1c(Cl)ccc(F)c1Cl [Crizotinib] (first compound max 10 µM, 7x7, partner max 10 µM)", 0.769),
    ("CN(CCO)CC[C@H](CSc1ccccc1)Nc1ccc(S(=O)(=O)NC(=O)c2ccc(N3CCC([C@@H](O)c4ccccc4-c4ccc(Cl)cc4)CC3)cc2)cc1S(=O)(=O)C(F)(F)F [AZD4320] + CN(C)CCCOc1ccc(-c2ccc3ncc4c(c3c2)n(C2CCOCC2)c(=O)n4C)cn1 [AZD0156] (first compound max 1 µM, 7x7, partner max 1 µM)", 0.278),
]
